Test system: Chlamydia pneumoniae
Assay: Antimicrobial activity against Chlamydia pneumoniae TW-183 after 72 hrs by twofold dilution method
Type: functional
Details: TW-183, 72 h
MEASURED ATTRIBUTE: MIC (ng/mL)
Field format: number, assumed ng/mL, no unit text.

Guide cases for MIC, answers given:
MOLECULAR STRING: CO[C@H]1/C=C/O[C@@]2(C)Oc3c(C)c(O)c4c(=O)c(c5oc6cc(N7CC(N(C)C)C7)cc(O)c6nc-5c4c3C2=O)NC(=O)/C(C)=C\C=C\[C@H](C)[C@H](O)[C@@H](C)[C@@H](O)[C@@H](C)[C@H](OC(C)=O)[C@@H]1C
UNIT SPEC: ng/mL
MIC: 0.064

MOLECULAR STRING: CO[C@H]1/C=C/O[C@@]2(C)Oc3c(C)c(O)c4c(=O)c(c5oc6cc(N7CCN(CC(C)C)CC7)cc(O)c6nc-5c4c3C2=O)NC(=O)/C(C)=C\C=C\[C@H](C)[C@H](O)[C@@H](C)[C@@H](O)[C@@H](C)[C@H](OC(C)=O)[C@@H]1C
UNIT SPEC: ng/mL
MIC: 0.25

MOLECULAR STRING: CO[C@H]1/C=C/O[C@@]2(C)Oc3c(C)c(O)c4c(=O)c(c5oc6cc(N7CCC(C)(C)N(C)C(C)(C)C7)cc(O)c6nc-5c4c3C2=O)NC(=O)/C(C)=C\C=C\[C@H](C)[C@H](O)[C@@H](C)[C@@H](O)[C@@H](C)[C@H](OC(C)=O)[C@@H]1C
UNIT SPEC: ng/mL
MIC: 0.064

MOLECULAR STRING: CO[C@H]1/C=C/O[C@@]2(C)Oc3c(C)c(O)c4c(=O)c(c5oc6cc(N7CCN(CC8CC8)CC7)cc(O)c6nc-5c4c3C2=O)NC(=O)/C(C)=C\C=C\[C@H](C)[C@H](O)[C@@H](C)[C@@H](O)[C@@H](C)[C@H](O)[C@@H]1C
UNIT SPEC: ng/mL
MIC: 0.064

MOLECULAR STRING: CO[C@H]1/C=C/O[C@@]2(C)Oc3c(C)c(O)c4c(=O)c(c5oc6cc(N7CC8CCC(C7)N8C)cc(O)c6nc-5c4c3C2=O)NC(=O)/C(C)=C\C=C\[C@H](C)[C@H](O)[C@@H](C)[C@@H](O)[C@@H](C)[C@H](OC(C)=O)[C@@H]1C
UNIT SPEC: ng/mL
MIC: 0.125

Continue with the next molecule.
What MIC appears in the records for this molecule with Chlamydia pneumoniae? CO[C@H]1/C=C/O[C@@]2(C)Oc3c(C)c(O)c4c(=O)c(c5oc6cc(N7CCN(C)CC7)cc(O)c6nc-5c4c3C2=O)NC(=O)/C(C)=C\C=C\[C@H](C)[C@H](O)[C@@H](C)[C@@H](O)[C@@H](C)[C@H](O)[C@@H]1C
0.125
